# TARGET_ENTITY: ENaC (Homo sapiens, UniProt P37088+P51168+P51170)
# Sequence (P37088 whole entry): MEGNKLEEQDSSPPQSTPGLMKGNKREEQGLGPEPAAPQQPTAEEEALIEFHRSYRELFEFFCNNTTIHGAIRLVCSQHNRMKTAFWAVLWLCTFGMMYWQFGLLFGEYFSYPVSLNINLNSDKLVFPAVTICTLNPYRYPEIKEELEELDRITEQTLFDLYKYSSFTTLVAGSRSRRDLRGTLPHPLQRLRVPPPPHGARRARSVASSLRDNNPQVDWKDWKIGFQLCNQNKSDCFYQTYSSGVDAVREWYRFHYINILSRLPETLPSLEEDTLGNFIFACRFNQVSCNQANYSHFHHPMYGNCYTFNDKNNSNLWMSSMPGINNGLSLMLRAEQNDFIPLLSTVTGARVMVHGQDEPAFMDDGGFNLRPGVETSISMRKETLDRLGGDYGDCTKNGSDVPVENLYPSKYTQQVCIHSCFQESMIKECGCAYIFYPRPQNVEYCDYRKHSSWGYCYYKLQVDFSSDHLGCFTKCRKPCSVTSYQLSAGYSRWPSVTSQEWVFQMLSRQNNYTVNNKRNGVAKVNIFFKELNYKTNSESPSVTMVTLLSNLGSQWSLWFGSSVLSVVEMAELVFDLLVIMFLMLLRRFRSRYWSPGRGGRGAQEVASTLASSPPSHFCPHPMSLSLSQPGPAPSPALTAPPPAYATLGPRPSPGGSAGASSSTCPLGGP
# Sequence (P51168 whole entry): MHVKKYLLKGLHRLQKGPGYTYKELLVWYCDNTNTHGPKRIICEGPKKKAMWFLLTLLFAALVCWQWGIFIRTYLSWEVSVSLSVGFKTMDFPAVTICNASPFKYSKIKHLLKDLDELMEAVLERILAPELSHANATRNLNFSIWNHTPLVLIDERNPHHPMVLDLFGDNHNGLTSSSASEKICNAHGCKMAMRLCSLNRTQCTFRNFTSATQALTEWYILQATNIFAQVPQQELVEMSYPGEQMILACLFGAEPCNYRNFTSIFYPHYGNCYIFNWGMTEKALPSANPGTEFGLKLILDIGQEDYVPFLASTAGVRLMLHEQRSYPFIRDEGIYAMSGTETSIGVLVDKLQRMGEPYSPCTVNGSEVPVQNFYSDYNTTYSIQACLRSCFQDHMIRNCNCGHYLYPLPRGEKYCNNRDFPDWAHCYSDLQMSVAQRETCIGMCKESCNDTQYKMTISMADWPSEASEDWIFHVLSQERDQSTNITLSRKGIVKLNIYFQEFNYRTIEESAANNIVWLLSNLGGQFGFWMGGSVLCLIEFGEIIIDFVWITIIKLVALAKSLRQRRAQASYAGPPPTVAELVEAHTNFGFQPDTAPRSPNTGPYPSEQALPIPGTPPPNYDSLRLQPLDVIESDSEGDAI
# Sequence (P51170 whole entry): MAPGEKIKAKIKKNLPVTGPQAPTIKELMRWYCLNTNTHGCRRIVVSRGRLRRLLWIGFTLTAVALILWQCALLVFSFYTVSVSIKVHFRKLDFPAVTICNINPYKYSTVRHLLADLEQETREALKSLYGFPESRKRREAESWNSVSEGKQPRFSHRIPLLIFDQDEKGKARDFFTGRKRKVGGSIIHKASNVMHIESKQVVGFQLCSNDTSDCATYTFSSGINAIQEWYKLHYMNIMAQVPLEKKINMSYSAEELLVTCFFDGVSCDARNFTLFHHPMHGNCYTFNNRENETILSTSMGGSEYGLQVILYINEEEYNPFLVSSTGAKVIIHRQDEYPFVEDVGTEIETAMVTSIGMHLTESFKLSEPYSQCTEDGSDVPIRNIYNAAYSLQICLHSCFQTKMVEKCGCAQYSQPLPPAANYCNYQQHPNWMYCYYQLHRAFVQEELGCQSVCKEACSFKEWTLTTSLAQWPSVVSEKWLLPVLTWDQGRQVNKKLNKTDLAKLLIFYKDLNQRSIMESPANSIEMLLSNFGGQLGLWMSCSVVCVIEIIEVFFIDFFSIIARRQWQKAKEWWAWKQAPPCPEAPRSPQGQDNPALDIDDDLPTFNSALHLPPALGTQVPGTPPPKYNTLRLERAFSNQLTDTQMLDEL
# ASSAY_INFO: Short circuit current assay to determine ENaC blocker potency in human bronchial epithelial cells
# SETUP_CONDITIONS: 50% inhibition of total amiloride-sensitive ISC, HBECs, apical addition; read-out: Averages. ENaC Ic50 μm Avg
pIC50: −log10 of the molar value.
Documented pIC50 across a set of molecules
VALUE_KIND: pIC50

>>> observed("CCc1cnc(N)c(C(=O)NCc2n(CC)c3cc(OC)ccc3[n+]2C)n1.[I-]")
6.65
>>> observed("CCn1c(CNC(=O)c2nc(Br)cnc2N)[n+](CCO)c2ccc(OC)cc21.O=C[O-] [Example 3, formate]")
9.00
>>> observed("CCn1c(CNC(=O)c2nc(Br)cnc2N)[n+](CC)c2ccc(-c3cnn(C4CCNCC4)c3)cc21.Cl.[I-]")
9.00
>>> observed("CCn1c(CNC(=O)c2nc(Br)cnc2N)[n+](C)c2ccc(C(F)(F)F)cc21.[I-]")
8.40
>>> observed("CCn1c(CNC(=O)c2nc(Cl)cnc2N)[n+](C)c2ccc(OC)cc21.[I-]")
8.70
>>> observed("CCn1c(CNC(=O)c2nc(SC)cnc2N)[n+](C)c2ccc(OC)cc21.[I-]")
7.13
>>> observed("CCn1c(CNC(=O)c2nc(Br)cnc2N)[n+](CC)c2ccc(OC)cc21.O=C[O-] [Example 2, formate]")
9.00
>>> observed("CCn1c(CNC(=O)c2nc(Br)cnc2N)[n+](CCOCCOCCO)c2ccc(OC)cc21.O=C[O-] [Example 4, formate]")
8.40
